- system name: T1, MORC2 dephosphorylated (wild-type) (Homo sapiens, UniProt Q9Y6X9 1-1032)
- T1 sequence: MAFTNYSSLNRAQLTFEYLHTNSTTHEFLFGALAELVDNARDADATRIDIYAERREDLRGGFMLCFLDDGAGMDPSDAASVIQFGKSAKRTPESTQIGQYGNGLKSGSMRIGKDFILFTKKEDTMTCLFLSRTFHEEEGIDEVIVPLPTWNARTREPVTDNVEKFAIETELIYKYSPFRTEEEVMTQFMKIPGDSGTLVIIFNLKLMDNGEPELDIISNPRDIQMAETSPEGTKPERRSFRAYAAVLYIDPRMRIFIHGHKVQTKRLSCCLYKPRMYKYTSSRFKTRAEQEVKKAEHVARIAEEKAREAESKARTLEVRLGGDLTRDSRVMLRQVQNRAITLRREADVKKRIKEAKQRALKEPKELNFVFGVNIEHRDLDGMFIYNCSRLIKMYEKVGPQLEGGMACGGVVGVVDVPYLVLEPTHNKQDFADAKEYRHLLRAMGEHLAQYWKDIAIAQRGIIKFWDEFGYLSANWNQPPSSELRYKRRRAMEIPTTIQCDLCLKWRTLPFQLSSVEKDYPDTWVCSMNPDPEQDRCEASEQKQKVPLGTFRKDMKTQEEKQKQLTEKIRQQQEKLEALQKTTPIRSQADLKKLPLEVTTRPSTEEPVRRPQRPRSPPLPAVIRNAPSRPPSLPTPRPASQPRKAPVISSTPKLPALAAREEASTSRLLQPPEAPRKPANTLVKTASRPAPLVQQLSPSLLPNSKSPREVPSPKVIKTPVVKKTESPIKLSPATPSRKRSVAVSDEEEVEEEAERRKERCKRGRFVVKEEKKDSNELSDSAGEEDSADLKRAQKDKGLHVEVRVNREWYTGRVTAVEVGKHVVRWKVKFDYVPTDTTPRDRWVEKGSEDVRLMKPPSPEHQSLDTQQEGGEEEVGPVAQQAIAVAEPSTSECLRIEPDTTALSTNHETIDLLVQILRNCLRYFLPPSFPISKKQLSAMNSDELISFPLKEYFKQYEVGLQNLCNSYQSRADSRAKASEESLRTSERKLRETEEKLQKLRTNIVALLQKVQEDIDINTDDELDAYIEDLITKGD
- run description: fluorescence anisotropy; apo; FA/EMSA: 50 mM NaCl, 3 mM MgCl2, 20 mM Na-HEPES pH 7.4, 1 mM TCEP, 10% glycerol, 0.025 mM ZnCl2, 50 ug/ml BSA, room temperature; 1 nM nucleic acid (FA) or 20 nM DNA (EMSA)
- setup conditions: protein: recombinant; tags: tag removed by TEV; chain copies: 2; label: 5'-6-FAM; blunt
readout name: pKd
The value called pKd is obtained by taking minus log10 of the concentration in mol/L.

State the recorded pKd for this entry: Random 45mer dsDNA (dsDNA) DNA 1: GCCGCGTATAGGGTCCATCAGAATTCGGATGAACTCGGTGTGAAG DNA 2: CTTCACACCGAGTTCATCCGAATTCTGATGGACCCTATACGCGGC
7.96

Same again, this time with Random 25mer dsDNA (dsDNA) DNA 1: TCCATCAGAATTCGGATGAACTCGG DNA 2: CCGAGTTCATCCGAATTCTGATGGA
7.68

Next binder: Random 35mer dsDNA (dsDNA) DNA 1: ATAGGGTCCATCAGAATTCGGATGAACTCGGTGTG DNA 2: CACACCGAGTTCATCCGAATTCTGATGGACCCTAT
7.77
